For each entry below, report its switch fluorescence ratio value.
System: ATP;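 further: ATP exposure 15 min at 22 °C before imaging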
PROCEDURE TEXT: switch fluorescence ratio, 500 uM ATP over buffer (Cy3 cluster intensity, sum of 5 cycles each) (fold (ratio)); higher = stronger signal-on switching upon ATP binding; sequences stand for … in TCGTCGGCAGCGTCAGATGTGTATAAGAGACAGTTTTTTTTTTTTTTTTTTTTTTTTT…TC
CONDITION INFO: aptamer strand: ATP DNA aptamer (quencher-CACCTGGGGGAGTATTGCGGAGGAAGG + anchor), 100 nM annealed; ATP concentration: 500 uM
Lab note: jot down the number only; don't add units.

*Q* Give recorded switch fluorescence ratio with ATP for the following sequence: `ACATGTCTGG`
*A* 1

*Q* Recorded switch fluorescence ratio for `ATTGGGGAGC` with ATP, please?
*A* 0.989

*Q* Provide the documented switch fluorescence ratio with ATP as the system for `AGAGCAATTG`
*A* 1.19

*Q* Please provide the recorded switch fluorescence ratio for `TGCAGGGGTT` , tested on ATP.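 Further: ATP exposure 15 min at 22 °C before imaging.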
*A* 1.05

*Q* # value lookup — system ATP, readout switch fluorescence ratio, item `GCTTGTAGCT`;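 further: ATP exposure 15 min at 22 °C before imaging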
*A* 1.02

*Q* What is its switch fluorescence ratio for ATP? Entry: `GGAGAAGGGA`
*A* 0.973

*Q* Enter reported switch fluorescence ratio observed with ATP for `ACAATCGGCG`
*A* 1.02

*Q* Please provide the recorded switch fluorescence ratio for `AGGGGAAGAC` , tested on ATP.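 Further: ATP exposure 15 min at 22 °C before imaging.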
*A* 1.29

*Q* // lookup switch fluorescence ratio | system=ATP | key= `CGGATATGGT`;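 further: ATP exposure 15 min at 22 °C before imaging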
*A* 1

*Q* For the record `GGGGTTATGG` , what value of switch fluorescence ratio is listed for ATP?
*A* 0.984

*Q* Could you share what switch fluorescence ratio was measured for `ATGAGCCAGT` , tested on ATP?;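 further: ATP exposure 15 min at 22 °C before imaging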
*A* 1

*Q* Could you share what switch fluorescence ratio was measured for `AGCGGGATGC` , tested on ATP?;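 further: ATP exposure 15 min at 22 °C before imaging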
*A* 1.03

*Q* Notebook: pull reported switch fluorescence ratio for ATP, entry `GCGGCCCTGG`
*A* 1.01

*Q* State its switch fluorescence ratio on ATP: `GATATATGCA`
*A* 0.997
